Test system: female Culex pipiens pallens
assay_method_text: Efficacy of pesticide incense coils on mosquito (GB13917.4-92, airtight cask)
Assay type: in vivo
measurement_parameters: pesticide incense coil, 0.04 w/w % active ingredient, ignited and removed after 1 min, 20 female mosquitoes
measurement_kind: KT50 (min)
I only need the number, in min, no unit after it.

Here's what some known entries look like.
>  <compound>
COCc1c(F)c(F)c(COC(=O)[C@@H]2C(/C=C/C(F)(F)F)C2(C)C)c(F)c1F (stereo partly drawn) [Compound 2]

>  <system>
female Culex pipiens pallens

>  <measurement_kind>
KT50

>  <recorded_result>
5.2

$$$$
>  <compound>
COCc1c(F)c(F)c(COC(=O)[C@H]2C(/C=C/C(F)(F)F)C2(C)C)c(F)c1F (stereo partly drawn) [Compound 4]

>  <system>
female Culex pipiens pallens

>  <measurement_kind>
KT50

>  <recorded_result>
8.2

$$$$
>  <compound>
COCc1c(F)c(F)c(COC(=O)[C@H]2C(/C=C\C(F)(F)F)C2(C)C)c(F)c1F (stereo partly drawn) [Compound 3]

>  <system>
female Culex pipiens pallens

>  <measurement_kind>
KT50

>  <recorded_result>
5.1

$$$$
>  <compound>
COCc1c(F)c(F)c(COC(=O)C2C(C=C(C)C)C2(C)C)c(F)c1F (stereo not drawn) [Dimefluthrin, dimefluthrin, reference compound]

>  <system>
female Culex pipiens pallens

>  <measurement_kind>
KT50

>  <recorded_result>
7.6

$$$$
>  <compound>
COCc1c(F)c(F)c(COC(=O)[C@@H]2[C@@H](/C=C\C(F)(F)F)C2(C)C)c(F)c1F (relative stereo) [Compound 6]

>  <system>
female Culex pipiens pallens

>  <measurement_kind>
KT50

>  <recorded_result>
3.1

$$$$

Quick check: KT50 of COCc1c(F)c(F)c(COC(=O)[C@@H]2C(/C=C\C(F)(F)F)C2(C)C)c(F)c1F (stereo partly drawn) [Compound 1] ?
3.2
